# TARGET_OF_ASSAY: T1, Myc-tagged Bfl-1 (human, UniProt Q16548 1-175)
# T1 chain: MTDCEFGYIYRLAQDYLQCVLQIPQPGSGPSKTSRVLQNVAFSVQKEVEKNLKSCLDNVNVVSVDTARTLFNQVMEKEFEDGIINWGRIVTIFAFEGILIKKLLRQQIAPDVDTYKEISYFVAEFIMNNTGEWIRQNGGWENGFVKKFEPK
# METHOD_NOTES: FP
MEASURED_PROPERTY: Ki (nM)

Ac-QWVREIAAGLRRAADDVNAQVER-NH2 (designed binder) [FS2]	21

(P) Ac-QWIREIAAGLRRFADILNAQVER-NH2 (designed binder) [FS3]
(Q) Ac-QWAREIGAQLRRMADDLNAQYER-NH2 [PUMA BH3 peptide (23 residues)]
Input line: Hi team, can someone confirm which has the larger Ki: P or Q ? Thanks. // respond with label for picked entry
Output line: Q
(Q: 4.8 nM, P: 2.1 nM)
